Origin of measurements: patent US11746100B2

Consider the following compounds; for each one, report its pEC50.
- measured-target: human ferroportin (Homo sapiens, UniProt Q9NP59)
- Construct: luciferase reporter (read with the Nano-Glo Luciferase Assay System); expressed in transfected cells; host or cells: CHO cells, stably transfected, expression induced with doxycycline
- Sequence (Q9NP59 whole entry): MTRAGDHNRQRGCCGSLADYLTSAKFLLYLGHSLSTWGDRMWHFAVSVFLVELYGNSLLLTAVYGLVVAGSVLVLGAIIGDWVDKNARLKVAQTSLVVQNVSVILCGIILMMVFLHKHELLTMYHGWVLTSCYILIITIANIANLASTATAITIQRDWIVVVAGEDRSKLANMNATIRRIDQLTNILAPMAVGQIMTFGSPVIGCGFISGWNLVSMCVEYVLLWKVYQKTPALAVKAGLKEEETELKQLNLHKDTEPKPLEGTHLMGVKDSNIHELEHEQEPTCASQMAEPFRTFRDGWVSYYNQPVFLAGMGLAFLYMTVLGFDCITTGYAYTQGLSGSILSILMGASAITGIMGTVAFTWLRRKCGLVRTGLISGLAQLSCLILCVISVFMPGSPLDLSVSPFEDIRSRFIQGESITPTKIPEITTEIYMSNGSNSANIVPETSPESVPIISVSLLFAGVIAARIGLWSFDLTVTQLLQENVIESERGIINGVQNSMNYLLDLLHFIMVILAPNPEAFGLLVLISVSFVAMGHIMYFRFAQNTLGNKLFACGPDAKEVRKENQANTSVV
- method-description: Biological in-vitro ferroportin internalization assay (luciferase reporter)
- Type: cell-based
- recorded-conditions: average pEC50; stably-transfected CHO cell line expressing human ferroportin tagged to a luciferase reporter; 6 h incubation with test compound
Write the value as a bare number.

Request: Determine from records and report pEC50 for CN(CC(=O)NC(C)(C)C)c1nc(-c2cc(OC3COC3)ccn2)nc2c1CCC2
Result: 7.7

Request: Determine from records and report pEC50 for CC(C)NC(=O)CN(C)c1nc(-c2cc(OCC(C)(C)O)ccn2)nc2c1C(C)(C)CC2
Result: 7.8

Request: Determine from records and report pEC50 for CN(CC(=O)Nc1cnn(C)c1)c1nc(-c2cc(OC(F)F)ccn2)nc2c1CCC2
Result: 6.4

Request: Determine from records and report pEC50 for CC1(C)CC[C@H](Nc2nc(-c3ccccn3)nc3c2CCC3)C(=O)N1
Result: 6.7

Request: Determine from records and report pEC50 for Cc1cnc(CCNC(=O)CN(C)c2nc(-c3ccccn3)nc3c2CCC3)n1C1CCC1
Result: 7

Request: Determine from records and report pEC50 for CN(CC(=O)N1CCCCC1)c1nc(-c2cc(OCC(C)(C)O)ccn2)nc2c1CCC2
Result: 7.8

Request: Determine from records and report pEC50 for CN(CC(=O)N1CCCCCC1)c1nc(-c2cc(OC3COC3)ccn2)nc2c1CCC2
Result: 7.7

Request: Determine from records and report pEC50 for CN(CC(=O)Nc1nnc(N2CCCCCC2)s1)c1nc(-c2ccccn2)nc2c1CCC2
Result: 7.4
